# Experimental Target: human recombinant serotonin (5-Hydroxytryptamine) 5-HT7 receptor (Homo sapiens, UniProt P34969)
# Construct: expressed in transfected cells; host or cells: CHO cells
# Sequence (P34969 whole entry): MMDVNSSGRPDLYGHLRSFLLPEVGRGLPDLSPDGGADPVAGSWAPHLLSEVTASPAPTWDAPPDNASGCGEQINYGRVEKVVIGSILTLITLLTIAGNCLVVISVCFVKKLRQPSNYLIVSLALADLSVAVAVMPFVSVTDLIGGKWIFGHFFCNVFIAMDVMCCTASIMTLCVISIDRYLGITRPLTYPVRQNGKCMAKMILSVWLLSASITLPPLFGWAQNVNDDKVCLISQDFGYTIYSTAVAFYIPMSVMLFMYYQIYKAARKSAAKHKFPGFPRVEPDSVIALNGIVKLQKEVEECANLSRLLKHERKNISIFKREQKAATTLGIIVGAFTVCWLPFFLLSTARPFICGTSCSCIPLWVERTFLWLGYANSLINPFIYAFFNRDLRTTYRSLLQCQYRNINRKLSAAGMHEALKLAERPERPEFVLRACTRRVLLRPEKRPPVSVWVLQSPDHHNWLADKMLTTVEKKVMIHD
# Method Notes: Serotonin 5-HT7 radioligand binding ([3H]LSD)
# Experimental Conditions: 2 h; read-out: Percent Inhibition of ligand binding Serotonin (1 μM ligand concentration) 5-HT7
Parameter: inhibition at 1 µM. Scope: all listed entries.
Recorded Metric: inhibition at 1 µM

C/C(=C\n1c2c(c3cc(C)ccc31)CCN(C)C2)c1ccc(F)c(F)c1 = 96%
C/C(=C\n1c2c(c3cc(Cl)ccc31)CCN(C)C2)c1ccc(F)c(F)c1 = 87%
COc1ccc(/C(C)=C/n2c3c(c4cc(C)ccc42)CCN(C)C3)cc1F = 94%
C/C(=C\n1c2c(c3cc(Cl)ccc31)CCN(C)C2C)c1ccccc1F (stereo not shown) = 84%
CCC1c2c(c3cc(Cl)ccc3n2C(=O)Cc2ccc(F)cc2)CCN1C (stereo not shown) = 13%
CCC1c2c(c3cc(Cl)ccc3n2/C=C(\C)c2ccc(Cl)cc2)CCN1C (stereo not shown) = 42%
CCC1c2c(c3cc(Cl)ccc3n2/C=C(\C)c2ccc(F)c(F)c2)CCN1C (stereo not shown) = 67%
COc1ccc(/C(C)=C/n2c3c(c4cc(Cl)ccc42)CCN(C)C3)cc1F = 95%
Cc1ccc2c(c1)c1c(n2C(=O)Cc2ccc(Cl)cc2)CN(C)CC1 = 81%
CC1c2c(c3cc(Cl)ccc3n2C#Cc2ccc(Cl)cc2)CCN1C (stereo not shown) = 35%
CCC1c2c(c3cc(C)ccc3n2C#Cc2ccc(Cl)cc2)CCN1C (stereo not shown) = 27%
C/C(=C/n1c2c(c3cc(Cl)ccc31)CCN(C)C2C)c1ccccc1F (stereo not shown) = 97%
Cc1ccc2c(c1)c1c(n2C#Cc2ccc(Cl)cc2)CN(C)CC1 = 22%
C/C(=C/n1c2c(c3cc(C)ccc31)CCN(C)C2C)c1ccccc1F (stereo not shown) = 91%
CC1c2c(c3cc(Cl)ccc3n2CCc2ccc(F)cc2)CCN1C (stereo not shown) = 82%
C/C(=C\n1c2c(c3cc(Cl)ccc31)CCN(C)C2C)c1ccc(Cl)cc1 (stereo not shown) = 68%

###

# Experimental Target: human recombinant adrenergic α2B receptor (Homo sapiens, UniProt P18089)
# Construct: expressed in transfected cells; host or cells: CHO-K1 cells
# Sequence (P18089 whole entry): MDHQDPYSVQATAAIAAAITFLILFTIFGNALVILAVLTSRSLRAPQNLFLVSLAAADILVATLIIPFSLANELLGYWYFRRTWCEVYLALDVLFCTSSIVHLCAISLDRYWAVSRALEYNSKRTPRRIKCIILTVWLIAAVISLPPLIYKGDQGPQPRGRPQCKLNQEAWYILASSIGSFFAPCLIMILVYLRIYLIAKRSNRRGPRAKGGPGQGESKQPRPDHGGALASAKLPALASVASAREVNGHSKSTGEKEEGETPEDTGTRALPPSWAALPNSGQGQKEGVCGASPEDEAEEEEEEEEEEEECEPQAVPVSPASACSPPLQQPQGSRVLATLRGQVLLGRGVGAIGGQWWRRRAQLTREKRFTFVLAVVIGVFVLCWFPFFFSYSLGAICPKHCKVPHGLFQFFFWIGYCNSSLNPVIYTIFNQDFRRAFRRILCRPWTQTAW
# Method Notes: Adrenergic α2B radioligand binding ([3H]Rauwolscine)
# Experimental Conditions: 1 h; read-out: Percent Inhibition of ligand binding Adrenergic (1 μM ligand conc.) α2B
Threshold check on inhibition at 1 µM: at or above 80% gives yes (1), strictly below gives no (0).

COC(=O)Cn1c2c(c3cc(C)ccc31)CCN(C)C2 = no (0)
Cc1ccc2c(c1)c1c(n2CCC(=O)N2CCCCC2)CN(C)CC1 = no (0)
C/C(=C\n1c2c(c3cc(C)ccc31)CCN(C)C2C)c1ccccc1F (stereo not shown) = yes (1)
CCC1c2c(c3cc(Cl)ccc3n2CC(C)(O)c2ccc(F)cc2)CCN1C (stereo not shown) = yes (1)
Cc1ccc2c(c1)c1c(n2CC(=O)N2CCCCC2)CN(C)CC1 = no (0)
Cc1ccc2c(c1)c1c(n2C(=O)Cc2ccc(Cl)cc2)C(c2ccccc2)N(C)CC1 (stereo not shown) = no (0)
CN1CCc2c(n(CCC3CCCC3)c3ccc(Cl)cc23)C1 = no (0)
C/C(=C\n1c2c(c3cc(C)ccc31)CCN(C)C2c1ccccc1)c1ccc(Cl)cc1 (stereo not shown) = no (0)
CN1CCc2c(n(CCc3ccc(F)cc3)c3ccc(Cl)cc23)C1 = yes (1)
CN1CCc2c(n(CC(O)c3ccccc3)c3ccc(Cl)cc23)C1 (stereo not shown) = yes (1)
CN1CCc2c(n(CC(=O)N(C)C3CCCCC3)c3ccc(Cl)cc23)C1 = no (0)
CC(C)CCN(C)C(=O)Cn1c2c(c3cc(Cl)ccc31)CCN(C)C2 = no (0)
C/C(=C\n1c2c(c3cc(C)ccc31)CCN(C)C2C)c1ccc(Cl)cc1 (stereo not shown) = yes (1)
Cc1ccc2c(c1)c1c(n2CCc2ccc(C(F)(F)F)nc2)CN(C)CC1 = yes (1)
Cc1ccc(CCn2c3c(c4cc(Cl)ccc42)CCN(C)C3C)cn1 (stereo not shown) = yes (1)
CN1CCc2c(n(CC(=O)Nc3ccc(F)cc3)c3ccc(Cl)cc23)C1 = no (0)
COC(=O)Cn1c2c(c3cc(Cl)ccc31)CCN(C)C2 = no (0)
C/C(=C\n1c2c(c3cc(Cl)ccc31)CCN(C)C2)c1ccc(Cl)cc1 = yes (1)
CCC1c2c(c3cc(C)ccc3n2C#Cc2ccc(Cl)cc2)CCN1C (stereo not shown) = yes (1)
CCC1c2c(c3cc(C)ccc3n2/C=C(\C)c2ccc(Cl)cc2)CCN1C (stereo not shown) = no (0)
Cc1ccc2c(c1)c1c(n2CCc2ccc(C)nc2)CN(C)CC1 = yes (1)
CN1CCc2c(n(CC(=O)O)c3ccc(Cl)cc23)C1 = no (0)
CC1c2c(c3cc(Cl)ccc3n2C#Cc2ccc(Cl)cc2)CCN1C (stereo not shown) = yes (1)
Cc1ccc2c(c1)c1c(n2/C=C/c2ccccc2)CN(C)CC1 = yes (1)
CC1c2c(c3cc(Cl)ccc3n2C#Cc2ccc(F)cc2)CCN1C (stereo not shown) = yes (1)
C/C(=C\n1c2c(c3cc(Cl)ccc31)CCN(C)C2)c1ccc(F)cc1 = yes (1)
CN1CCc2c(n(CC(=O)N3CCCCC3)c3ccc(Cl)cc23)C1 = no (0)
Cc1ccc(C(O)Cn2c3c(c4cc(C)ccc42)CCN(C)C3)cc1 (stereo not shown) = yes (1)
CC1c2c(c3cc(Cl)ccc3n2CCc2ccc(F)cc2)CCN1C (stereo not shown) = yes (1)
CC1CCN(C(=O)Cn2c3c(c4cc(Cl)ccc42)CCN(C)C3)CC1 = no (0)
Cc1ccc2c(c1)c1c(n2CC(=O)O)CN(C)CC1 = no (0)
C#CCn1c2c(c3cc(Cl)ccc31)CCN(C)C2 = no (0)
CN1CCc2c(n(CC(=O)N3CCNCC3)c3ccc(Cl)cc23)C1 = no (0)
CN1CCc2c(n(CC(C)(O)c3ccc(F)cc3)c3ccc(Cl)cc23)C1 (stereo not shown) = yes (1)
